Entries with their measured MIC, system S. aureus ATCC 29213:
Answer with a number only, understood to be in µg/mL.

Completed entries (count: 6):
1. Cc1ccc(NC(=O)Nc2ccc(Cl)c(Cl)c2)cc1 [1ae, 1-(3,4-Dichlorophenyl)-3-p-tolylurea]; 128
2. O=C(Nc1ccccc1)Nc1ccc(Cl)c(Cl)c1 [1ef, 1-(3,4-Dichlorophenyl)-3-phenylurea]; 256
3. COc1ccc(NC(=O)Nc2ccccc2)cc1 [1df, 1-(4-Methoxyphenyl)-3-phenylurea]; 256
4. Cc1ccccc1NC(=O)Nc1ccccc1Cl [1gh]; 256
5. O=C(Nc1ccc(Cl)cc1)Nc1ccc(Cl)cc1 [1cc (DCC)]; 256
6. COc1ccc(NC(=O)Nc2ccc(C)cc2)cc1 [1ad, 1-(4-Methoxyphenyl)-3-(p-tolyl)urea]; 128

Shift focus to the following entry.
Result for O=C(Nc1ccc(Cl)cc1)Nc1ccc(Cl)c(Cl)c1 [1ce (TCC), reference compound] , tested on S. aureus ATCC 29213, MIC: 16

These entries and their values trace back to paper PMC7922224.
